Provenance of the data: patent US20210171652A1

# TESTED ON: T1, Band 3 / glycophorin A (Wright b, Wrb epitope) on human red blood cells (human, UniProt P02724 20-150)
# T1 construct: whole, on cells; also called Band3/GPA; AE1
# T1 sequence 1: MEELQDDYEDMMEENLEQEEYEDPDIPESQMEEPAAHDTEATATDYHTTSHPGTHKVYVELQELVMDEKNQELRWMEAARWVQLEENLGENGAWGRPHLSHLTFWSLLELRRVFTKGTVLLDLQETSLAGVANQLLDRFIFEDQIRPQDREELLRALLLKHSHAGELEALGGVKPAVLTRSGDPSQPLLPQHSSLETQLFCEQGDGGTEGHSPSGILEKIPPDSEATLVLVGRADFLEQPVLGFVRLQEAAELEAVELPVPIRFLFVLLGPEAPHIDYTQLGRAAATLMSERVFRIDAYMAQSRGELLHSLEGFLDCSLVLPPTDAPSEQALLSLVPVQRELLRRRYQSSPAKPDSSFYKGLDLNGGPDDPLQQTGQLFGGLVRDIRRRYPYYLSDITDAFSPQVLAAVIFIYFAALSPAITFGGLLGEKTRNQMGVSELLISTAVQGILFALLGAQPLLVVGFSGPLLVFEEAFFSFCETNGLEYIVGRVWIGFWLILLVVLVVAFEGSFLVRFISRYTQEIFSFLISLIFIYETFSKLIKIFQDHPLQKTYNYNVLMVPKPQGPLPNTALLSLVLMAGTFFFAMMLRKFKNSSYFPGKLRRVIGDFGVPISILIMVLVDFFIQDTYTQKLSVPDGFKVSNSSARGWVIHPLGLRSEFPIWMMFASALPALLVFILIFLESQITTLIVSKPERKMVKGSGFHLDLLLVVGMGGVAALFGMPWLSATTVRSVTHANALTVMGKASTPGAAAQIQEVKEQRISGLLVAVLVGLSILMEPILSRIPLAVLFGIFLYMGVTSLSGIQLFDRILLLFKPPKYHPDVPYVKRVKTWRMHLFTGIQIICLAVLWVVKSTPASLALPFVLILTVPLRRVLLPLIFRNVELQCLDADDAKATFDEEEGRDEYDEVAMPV
# T1 sequence 2: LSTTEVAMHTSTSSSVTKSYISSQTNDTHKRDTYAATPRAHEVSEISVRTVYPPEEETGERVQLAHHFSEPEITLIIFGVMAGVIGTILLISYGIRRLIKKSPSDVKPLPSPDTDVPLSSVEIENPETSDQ
# ASSAY NOTES: Fab/phage binding assays on human RBCs incl. rare RBC types lacking conserved antigens
RECORDED ENDPOINT: binding result

KP2-01 Fab/phage clone (anti-Band 3, Wrb) (Fab, V domains shown) VH: EVQLLESGPGLVKPSETLSLTCAVSGDSISSGLGWSWIRQTPGKGLEWIGYIGGSRGNTNYNPSFKSRVTISRDTSKNQFSLRLSSMTAADTAVYYCARRAPYWGYSYLDYWGQGVLVTVSS VL: AAELTQSPATLSLSPGETATLSCRASQSIGSSLAWYQQRPGQAPKLLVHSAYFRAAGIPDRFSGSGSRTDFTLTISSLEPEDVGVYHCQQYNDLLPLTFGGGTKVELK    binds
KP2-24 Fab/phage clone (anti-Band 3, Wrb) (Fab, V domains shown) VH: EVQLLESGPGLVKPSETLSLTCTVSGYSISSGYGWGWIRQSPGKGLEWIGYFGGSRGNTNYNPSLKSRVTISQDTSKNQFSLKLKSVTAADTGIYYCARDSGYSRRWVDYWGQGVLVTVSS VL: AAELTQSPATLSLAPGETATLSCRASQSVGTNLAWYHQKPGQPPKLLVHSAYVRATGIPDRFSGSGSRTDFTLTINSLQPEDVGVYHCQQYNDLLPLTFGGGTKIDIK    binds
KP2-09 Fab/phage clone (anti-Band 3, Wrb) (Fab, V domains shown) VH: EVQLLESGPGLVRPSETLSLTCAVSGYSISSGYGWHWIRQPPGKGLESLGYIGGSRGNTNYNPSLKSRVTISTDTSKNQFSLKLRSVTAADTAVYYCARDSGYNTRYFDYWGQGVLVTVSS VL: AAELTQSPATLSLSPGERATLSCRASQSVGSRLAWYQQKPGQAPRLLIYGASSRATGIPDRFSGSGSRTDFTLTISSLEPEDVGVYHCQQYNDLLPLTFGGGTKVEIK    binds
